Experiment: amyloid nucleation score (Sup35N fusion, yeast selection) (log enrichment); library NNK3; higher = more nucleation; inactive = no reads after selection;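 note: zero at mode of non-aggregating sequences after 7 days selection at 30°C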
measured_quantity: amyloid nucleation score

Consider the following illustrative entries.
VRNYGLDFRRACGWT	inactive
SVCWVFYCFFSLWCRLSESR	inactive
VCIWSIETNVCSGCVKIKGF	inactive
CSTIVWWEIAYKL	inactive

Exercise: Consider the substance RSPTVL and give its measured amyloid nucleation score.
Key: inactive

Exercise: Consider the substance EVVAAYHPATDTSDRERKAL and give its measured amyloid nucleation score.
Key: inactive

Exercise: Consider the substance YGDWIHATCVICSLSF and give its measured amyloid nucleation score.
Key: 3.39

Exercise: Consider the substance GLRDMGDKYVYMVSGGCIYG and give its measured amyloid nucleation score.
Key: 2.19

Exercise: Consider the substance FMFLVFDC and give its measured amyloid nucleation score.
Key: inactive

Exercise: Consider the substance YIYICLVFMSRCTKLYIELG and give its measured amyloid nucleation score.
Key: inactive

Exercise: Consider the substance FCRSVLTLKKKLMFYTLRHC and give its measured amyloid nucleation score.
Key: inactive

Exercise: Consider the substance SIGCSSGFGRCLDLG and give its measured amyloid nucleation score.
Key: inactive

Exercise: Consider the substance HTRLAPWSMDEGRAV and give its measured amyloid nucleation score.
Key: inactive
